normalized growth overview
Test: chemical genetic growth profiling, strain panel (AID 1159580);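 also: tested at 20 µM; growth read once vehicle control cultures reached saturation at 30 °C; 1 = growth at the plate median or of vehicle wells; lower values mean less growth of the strain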
Settings: S. cerevisiae deletion strains, growth OD, locus YJL166W, strain qcr8, stronger effect = lower value
Out of some 5,500 compounds screened, about 2,000 (36%) were called active. Roughly 18% stayed inconclusive and do not appear here. The list shows a part of the results.
METRIC_NAME: normalized growth

{"MOLECULE": "CN(C)CCc1c[nH]c2ccc(CS(=O)(=O)N3CCCC3)cc12", "OBS_VALUE": "0.986 (inactive)"}
{"MOLECULE": "CC[C@H]1OC(=O)[C@H](C)[C@@H](O[C@H]2C[C@@](C)(OC)[C@@H](O)[C@H](C)O2)[C@H](C)[C@@H](O[C@@H]2O[C@H](C)C[C@H](N(C)C)[C@H]2O)[C@](C)(O)C[C@@H](C)[C@@H]2N[C@@H](COCCOC)O[C@H]([C@H]2C)[C@]1(C)O", "OBS_VALUE": "0.993 (inactive)"}
{"MOLECULE": "CC1=C(O)C(=O)C=C2C1=CC=C1[C@@]2(C)CC[C@@]2(C)[C@@H]3C[C@](C)(C(=O)O)CC[C@]3(C)CC[C@]12C", "OBS_VALUE": "0.312 (active)"}
{"MOLECULE": "COC(=O)[C@]1(C)CC[C@]2(C)CC[C@]3(C)C4=CC=C5C(=CC(=O)C(O)=C5C)[C@]4(C)CC[C@@]3(C)[C@@H]2C1", "OBS_VALUE": "0.509 (active)"}
{"MOLECULE": "CNS(=O)(=O)Cc1ccc2[nH]cc(CCN(C)C)c2c1", "OBS_VALUE": "1.02 (inactive)"}
{"MOLECULE": "COC1(C)CCC2OC2(C)CCC2C1CC2(C)C (configuration not stated)", "OBS_VALUE": "1.02 (inactive)"}
{"MOLECULE": "CC(=O)Oc1cc2c(c(C)c1OC(C)=O)CC1OC13C2(C)CCC1(C)C2CC(C)(C(=O)O)CCC2(C)CCC13C (configuration not stated)", "OBS_VALUE": "1.01 (inactive)"}
